Taken from the supplement of paper PMC9112550.

system: Escherichia coli TOP10; assay: shrunken log2 fold change of peptide-encoding DNA abundance (4.5 h post-induction vs induction); higher = less antimicrobial activity (less host growth inhibition); details: time post-induction: 4.5 h; library: site-saturation at positions 5, 18, 19, 20
We use -0.02 as the dividing line for shrunken log2 fold change: on or above the line is Satisfied, below is Not satisfied.

Dear colleague, could you confirm whether `RRIRIRPPRLPRPRPRPPNWPRP` has shrunken log2 fold change at or above -0.02?
Satisfied

Subsequent entry: `RRIRYRPPRLPRPRPRPFQGPRP`
Satisfied

====

Recorded shrunken log2 fold change, one value per entry.
test system: Escherichia coli TOP10; assay: shrunken log2 fold change of peptide-encoding DNA abundance (4.5 h post-induction vs induction); higher = less antimicrobial activity (less host growth inhibition); conditions: time post-induction: 4.5 h; library: site-saturation at positions 5, 18, 19, 20
// print number alone

RRIRGRPPRLPRPRPRPFKLPRP
-0.167
RRIRFRPPRLPRPRPRPICHPRP
-0.351
RRIRCRPPRLPRPRPRPCKLPRP
-0.896
RRIRVRPPRLPRPRPRPQQFPRP
0.0811
RRIRFRPPRLPRPRPRPCFAPRP
0.153

Entry `RRIRGRPPRLPRPRPRPRHLPRP` : reported shrunken log2 fold change = ?
0.221

Subsequent entry: `RRIRKRPPRLPRPRPRPRSPPRP`
0.6

Subsequent entry: `RRIRMRPPRLPRPRPRPMCRPRP`
0.0713

Subsequent entry: `RRIRCRPPRLPRPRPRPQVTPRP`
-0.102

Subsequent entry: `RRIRTRPPRLPRPRPRPYGTPRP`
-0.347

====

system: Escherichia coli TOP10; test: shrunken log2 fold change of peptide-encoding DNA abundance (4.5 h post-induction vs induction); higher = less antimicrobial activity (less host growth inhibition); settings: time post-induction: 4.5 h; library: site-saturation at positions 5, 18, 19, 20
PROPERTY: shrunken log2 fold change
// print number alone

# example entries with known answers
RRIRLRPPRLPRPRPRPCRDPRP
-0.211
RRIRDRPPRLPRPRPRPWDDPRP
-0.249
RRIRGRPPRLPRPRPRPPDVPRP
0.0671
RRIRIRPPRLPRPRPRPNWCPRP
-0.26
RRIRARPPRLPRPRPRPHGYPRP
0.0466

Then there is this sequence:
Entry `RRIRVRPPRLPRPRPRPFGNPRP` : reported shrunken log2 fold change = ?
0.0432

====

test system: Escherichia coli TOP10; assay: shrunken log2 fold change of peptide-encoding DNA abundance (4.5 h post-induction vs induction); higher = less antimicrobial activity (less host growth inhibition); conditions: time post-induction: 4.5 h; library: site-saturation at positions 5, 18, 19, 20;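 note: peptides expressed intracellularly from a pBAD plasmid library in pooled LB shake-flask culture, induced with 0.3% L-arabinose, DNA abundance read by NGS, three biological replicates, DESeq2 with apeglm shrinkage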
We use -0.008 as the dividing line for shrunken log2 fold change: on or above the line is True, below is False.

Before answering, review these 3 worked examples.
RRIRCRPPRLPRPRPRPRLPPRP
True
RRIRNRPPRLPRPRPRPGCPPRP
False
RRIRDRPPRLPRPRPRPRQFPRP
True

Dear colleague, could you confirm whether `RRIRKRPPRLPRPRPRPLSYPRP` has shrunken log2 fold change at or above -0.008?
False

Subsequent entry: `RRIRTRPPRLPRPRPRPSQFPRP`
False

Subsequent entry: `RRIRMRPPRLPRPRPRPRWYPRP`
True

Subsequent entry: `RRIRMRPPRLPRPRPRPTDYPRP`
True
